assayed-target: Nuclear receptor coactivator 1 (Homo sapiens)
assay-name: SRC1 coactivator transcriptional activity inhibitors, primary screen, cell-based, luminescence (AID 588354);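 also: 0% = DMSO treated cells and 100% = gossypol at 36 µM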
condition-context: HEK293 GAL4-SRC1 luciferase reporter, at 3.6 µM, active compounds read high
About 430 (0.12%) of roughly 360,000 compounds were called active. For the sample, actives were picked, then their nearest neighbours and some compounds at random.
recorded-endpoint: inhibition (%)
Express the result in % but write the number alone.

Look up and state reported inhibition for O=C(NCc1ccccc1Cl)C1CCCN1S(=O)(=O)c1ccc(F)cc1 (stereo not given)
-10.6

---

assayed-target: Nuclear receptor coactivator 1 (Homo sapiens) (UniProt Q15788)
Sequence (Q15788 whole entry, looked up): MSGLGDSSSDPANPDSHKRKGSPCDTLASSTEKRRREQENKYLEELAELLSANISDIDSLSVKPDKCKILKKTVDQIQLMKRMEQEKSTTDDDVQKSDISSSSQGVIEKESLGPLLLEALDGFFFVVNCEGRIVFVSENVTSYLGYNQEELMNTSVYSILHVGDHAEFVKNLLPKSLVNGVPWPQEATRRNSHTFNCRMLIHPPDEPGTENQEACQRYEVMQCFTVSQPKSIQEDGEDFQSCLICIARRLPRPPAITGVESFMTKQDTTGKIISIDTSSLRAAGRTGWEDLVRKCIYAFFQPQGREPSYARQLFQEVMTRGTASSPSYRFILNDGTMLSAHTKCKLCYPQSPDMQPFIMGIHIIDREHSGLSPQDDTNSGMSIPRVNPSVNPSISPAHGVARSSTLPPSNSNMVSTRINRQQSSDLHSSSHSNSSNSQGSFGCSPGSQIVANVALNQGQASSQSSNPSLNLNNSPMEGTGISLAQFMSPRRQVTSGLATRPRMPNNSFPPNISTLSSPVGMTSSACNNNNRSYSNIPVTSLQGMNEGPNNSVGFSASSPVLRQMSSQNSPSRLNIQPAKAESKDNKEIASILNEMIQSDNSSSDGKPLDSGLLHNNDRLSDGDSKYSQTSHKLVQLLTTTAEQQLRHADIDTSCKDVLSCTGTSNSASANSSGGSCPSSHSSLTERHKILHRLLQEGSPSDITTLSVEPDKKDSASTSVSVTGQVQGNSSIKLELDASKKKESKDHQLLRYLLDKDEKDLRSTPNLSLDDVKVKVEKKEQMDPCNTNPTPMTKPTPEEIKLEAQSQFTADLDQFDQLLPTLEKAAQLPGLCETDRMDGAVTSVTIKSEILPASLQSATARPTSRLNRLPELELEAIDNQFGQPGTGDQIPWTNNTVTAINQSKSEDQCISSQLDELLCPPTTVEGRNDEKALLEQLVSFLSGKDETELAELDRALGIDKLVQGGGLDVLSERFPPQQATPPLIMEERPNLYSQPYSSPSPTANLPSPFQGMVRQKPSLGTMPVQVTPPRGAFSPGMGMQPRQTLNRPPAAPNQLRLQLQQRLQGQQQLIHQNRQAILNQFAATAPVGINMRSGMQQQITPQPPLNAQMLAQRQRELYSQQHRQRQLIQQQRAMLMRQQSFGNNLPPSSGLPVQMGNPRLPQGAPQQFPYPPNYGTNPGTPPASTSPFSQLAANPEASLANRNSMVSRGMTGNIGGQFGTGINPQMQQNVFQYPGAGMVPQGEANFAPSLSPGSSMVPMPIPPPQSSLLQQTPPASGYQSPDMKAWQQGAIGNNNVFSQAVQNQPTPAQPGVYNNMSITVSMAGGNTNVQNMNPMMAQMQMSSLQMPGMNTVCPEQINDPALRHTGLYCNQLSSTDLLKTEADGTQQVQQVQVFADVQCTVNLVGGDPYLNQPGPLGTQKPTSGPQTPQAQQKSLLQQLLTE
assay-name: SRC1 coactivator transcriptional activity inhibitors, primary screen, cell-based, luminescence (AID 588354);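 also: 0% = DMSO treated cells and 100% = gossypol at 36 µM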
condition-context: HEK293 GAL4-SRC1 luciferase reporter, at 3.6 µM, active compounds read high
Among all 360,000 compounds or so, about 430 (0.12%) were called active. The sample as a whole holds a higher share of actives than the screen did.
Reported inhibition values are given for each entry in this list.
I only need the number, in %, no unit after it.

Report value only: inhibition, Nuclear receptor coactivator 1 (Homo sapiens) (UniProt Q15788), "O=C(NNS(=O)(=O)Cc1ccccc1)c1ccc([N+](=O)[O-])cc1"
-4.79

// fetch inhibition for "CN(C)S(=O)(=O)c1ccc(Oc2ccc(S(=O)(=O)N(C)C)cc2)cc1" ; system: Nuclear receptor coactivator 1 (Homo sapiens) (UniProt Q15788)
21.5

For Nuclear receptor coactivator 1 (Homo sapiens) (UniProt Q15788), give inhibition of the listed compound: CC(CCn1cccn1)NC(=O)CCc1nnc(CCc2ccccc2)o1 (stereo not given)
11.7

Recall the reported inhibition of "COC(=O)CNC(=O)c1ccc2c(c1)S(=O)(=O)c1ccccc1C2=O" when tested on Nuclear receptor coactivator 1 (Homo sapiens) (UniProt Q15788).
-9.27

State inhibition (Nuclear receptor coactivator 1 (Homo sapiens) (UniProt Q15788)) of "O=C(Nc1cc(-c2ccccc2)nn1-c1ccccc1F)c1ccc([N+](=O)[O-])cc1" .
-16.9

Name the value of inhibition reported for COc1ccc(S(=O)(=O)N2CCN(C(=O)N(C)C)C2C)cc1 (stereo not given) when tested on Nuclear receptor coactivator 1 (Homo sapiens) (UniProt Q15788).
-47.2

Answer with inhibition of "CC(C)(C)c1nc2ccccc2c(=O)n1N1C(=O)c2ccccc2C1=O" measured for Nuclear receptor coactivator 1 (Homo sapiens) (UniProt Q15788).
6.03

Using Nuclear receptor coactivator 1 (Homo sapiens) (UniProt Q15788) as the test system, report measured inhibition of "O=C(NC(Nc1nc2ccc([N+](=O)[O-])cc2s1)(C(F)(F)F)C(F)(F)F)c1ccccc1" .
68.3

Please report inhibition with Nuclear receptor coactivator 1 (Homo sapiens) (UniProt Q15788) for item "CCN(CC(=O)Nc1ccc2c(c1)OCCO2)Cc1cc(=O)oc2cc(C)c(C)cc12" .
1.42

Identify measured inhibition obtained with Nuclear receptor coactivator 1 (Homo sapiens) (UniProt Q15788) for "CC(C)(C)c1ccc(Oc2ccc(N)cc2)cc1" .
74

All figures here come from PubChem BioAssay AID588354.
